# TARGET_OR_TEST_SYSTEM: SpSla1-D3
# METHOD_SUMMARY: SPOT peptide array binding signal intensity (averaged, normalized) (arbitrary units (background-subtracted, floor 0; scale differs between SH3 domains)); higher = stronger binding of the SH3 domain to the peptide
Form field: SPOT peptide array binding signal intensity (one value per entry).

BINDER | OBSERVED_MEASUREMENT
SSTPTTPERPKRKSG | ≤ 0
RLSFFFPLDPAYIRN | 32
GTIARPLFLVVLFFI | ≤ 0
QPWTDQFEKLEKEVS | ≤ 0
MSPLGAPPPPPHKDH | ≤ 0

What does the data say about its SPOT peptide array binding signal intensity? Entry: LASNSPPVYPKRIRH
≤ 0

Entry VQQDSLPKLPFRSWG : reported SPOT peptide array binding signal intensity = ?
≤ 0

Look at this binder and give its reported SPOT peptide array binding signal intensity. VRTRRRPPPPPIPST
1

Any idea what its SPOT peptide array binding signal intensity is? The binder is LYKRKPILLPDPKPL
≤ 0

Can you look up the measured SPOT peptide array binding signal intensity of DLFKPLPEPPTELGR for me?
≤ 0
